- Test system: L. crispatus and E. coli
- experimental details: Therapeutic Effect Protocol: L. crispatus / E. coli co-culture, ratio after 36 hours
- Format: cell-based, Lactobacillus crispatus; E. coli
- settings: nitrogen compound 0.10 wt/vol % with 1.0 wt/vol % α methyl-D glucoside (10:1); 36 hours anaerobic co-culture, 37° C.
Where a SMILES comes first, the peptide text is derived from it.
Tag: Condition met if measured Therapeutic Efficacy Results (Lactobacillus/E. coli) 0.10% is not below 10, Condition not met if it is.

CSCC[C@H](NC(=O)CN)C(=O)O
Condition met
NC(=O)CC[C@H](N)C(=O)O
Condition met
C[C@@H](N)C(=O)O
Condition met
NC(=O)C[C@@H](N)C(=O)O
Condition met
O=C1NC(=O)C(=O)C(=O)N1
Condition not met

Data request: // inclusive: Therapeutic Efficacy Results (Lactobacillus/E. coli) 0.10% at least 10? input: C[C@H](N)C(=O)N[C@@H](Cc1cnc[nH]1)C(=O)O [Ala-His] (H-Ala-His-OH)
Data returned: Condition met

Data request: Input C[C@H](N)C(=O)N[C@@H](CCC(=O)O)C(=O)O [Ala-Glu] (H-Ala-Glu-OH)
Data returned: Condition met

Data request: Input CC(=O)N[C@@H]1C(O)O[C@H](CO)[C@@H](O)[C@@H]1O (stereo partly shown)
Data returned: Condition not met

Data request: Input C[C@H](N)C(=O)N[C@@H](CC(=O)O)C(=O)O [Ala-Asp] (H-Ala-Asp-OH)
Data returned: Condition met
